Entry source: patent US9718796B2

target entity: hTLR8 (Homo sapiens)
Construct: host or cells: HEK293 cells stably transfected with hTLR8
Sequence (Q9NR97 27-1041): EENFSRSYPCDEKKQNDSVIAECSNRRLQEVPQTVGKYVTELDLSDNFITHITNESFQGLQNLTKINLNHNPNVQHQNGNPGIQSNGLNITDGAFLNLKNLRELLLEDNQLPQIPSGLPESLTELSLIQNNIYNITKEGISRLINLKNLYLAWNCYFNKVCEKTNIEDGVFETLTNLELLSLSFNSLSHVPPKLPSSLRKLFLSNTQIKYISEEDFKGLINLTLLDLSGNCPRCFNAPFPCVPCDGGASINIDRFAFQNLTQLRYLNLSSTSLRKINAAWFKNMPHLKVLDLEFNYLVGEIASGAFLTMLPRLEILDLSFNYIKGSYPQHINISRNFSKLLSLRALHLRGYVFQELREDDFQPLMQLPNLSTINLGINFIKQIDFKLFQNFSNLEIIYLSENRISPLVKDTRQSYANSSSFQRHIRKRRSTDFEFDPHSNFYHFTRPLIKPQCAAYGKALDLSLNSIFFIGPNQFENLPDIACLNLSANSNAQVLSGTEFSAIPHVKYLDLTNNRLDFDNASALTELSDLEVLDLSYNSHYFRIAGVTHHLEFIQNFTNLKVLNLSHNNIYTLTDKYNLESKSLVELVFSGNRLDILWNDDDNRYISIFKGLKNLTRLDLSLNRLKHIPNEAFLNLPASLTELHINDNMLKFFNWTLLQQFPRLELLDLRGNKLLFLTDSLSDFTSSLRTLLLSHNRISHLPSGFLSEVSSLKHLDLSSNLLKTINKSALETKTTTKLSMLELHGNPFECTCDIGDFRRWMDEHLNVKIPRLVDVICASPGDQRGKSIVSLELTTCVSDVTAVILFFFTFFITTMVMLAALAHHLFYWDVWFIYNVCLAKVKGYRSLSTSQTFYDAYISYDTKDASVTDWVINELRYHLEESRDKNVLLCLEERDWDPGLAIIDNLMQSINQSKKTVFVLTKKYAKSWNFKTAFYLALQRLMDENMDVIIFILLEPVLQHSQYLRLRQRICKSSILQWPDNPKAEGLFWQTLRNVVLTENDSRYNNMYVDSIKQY
test description: HEK-293 hTLR8 transfectant antagonist assay (NF-κB driven SEAP reporter)
Assay type: cell-based
protocol conditions: hTLR8 reporter cells; TLR8 agonist VTX-378 (Compound A) 0.5 μM; read-out: IC50, nM, vs. VTX-378 0.5 μM
// values below are reported IC50

{"structure smiles": "CCCN(CC(N)=O)C(=O)C1=Cc2cc(-c3ccc(C(=O)N4CCCC4)cc3C)ccc2N=C(N)C1", "target entity": "hTLR8 (Homo sapiens)", "IC50": "< 1000 nM"}
{"structure smiles": "CCOC(=O)C1=Cc2cc(-c3ccc(C(=O)N4CCCC4)cc3Cl)ccc2N=C(N)C1", "target entity": "hTLR8 (Homo sapiens)", "IC50": "< 1000 nM"}
{"structure smiles": "CCOC(=O)C1=Cc2cc(-c3ccccc3C(F)(F)F)ccc2N=C(N)C1", "target entity": "hTLR8 (Homo sapiens)", "IC50": "< 1000 nM"}
{"structure smiles": "CCOC(=O)C1=Cc2cc(-c3cccc(C)c3Cl)ccc2N=C(N)C1", "target entity": "hTLR8 (Homo sapiens)", "IC50": "1000 to 10000 nM"}
{"structure smiles": "CCOC(=O)C1=Cc2cc(-c3ccc(NC(=O)N(C)C)cc3)ccc2N=C(N)C1", "target entity": "hTLR8 (Homo sapiens)", "IC50": "< 1000 nM"}
{"structure smiles": "CCOC(=O)C1=Cc2cc(C3=CCN(C(=O)N4CCCC4)CC3)ccc2N=C(N)C1", "target entity": "hTLR8 (Homo sapiens)", "IC50": "1000 to 10000 nM"}
{"structure smiles": "NC1=Nc2ccc(-c3ccc(C(=O)N4CCCC4)cc3)cc2C=C(Br)C1", "target entity": "hTLR8 (Homo sapiens)", "IC50": "< 1000 nM"}
{"structure smiles": "CCOC(=O)C1=Cc2cc(-c3cccc(OC)c3Cl)ccc2N=C(N)C1", "target entity": "hTLR8 (Homo sapiens)", "IC50": "< 1000 nM"}
{"structure smiles": "CCOC(=O)C1=Cc2cc(-c3ccc(C)cc3)ccc2N=C(N)C1", "target entity": "hTLR8 (Homo sapiens)", "IC50": "1000 to 10000 nM"}
{"structure smiles": "CCOC(=O)C1=Cc2cc(-c3ccc(N4CCOC4=O)cc3Cl)ccc2N=C(N)C1", "target entity": "hTLR8 (Homo sapiens)", "IC50": "< 1000 nM"}
{"structure smiles": "CCOC(=O)C1=Cc2cc(-c3ccccc3Cl)ccc2N=C(N)C1", "target entity": "hTLR8 (Homo sapiens)", "IC50": "< 1000 nM"}
{"structure smiles": "CCOC(=O)C1=Cc2cc(-c3c(C)cccc3C)ccc2N=C(N)C1", "target entity": "hTLR8 (Homo sapiens)", "IC50": "1000 to 10000 nM"}
{"structure smiles": "CCOC(=O)C1=Cc2cc(-c3cccc(Cl)c3Cl)ccc2N=C(N)C1", "target entity": "hTLR8 (Homo sapiens)", "IC50": "1000 to 10000 nM"}
{"structure smiles": "CCOC(=O)C1=Cc2cc(-c3ccc(C(=O)N4CCCC4)cc3C)ccc2N=C(N)C1", "target entity": "hTLR8 (Homo sapiens)", "IC50": "< 1000 nM"}
{"structure smiles": "CCCN(CC(N)=O)C(=O)C1=Cc2cc(-c3ccc(C(=O)N4CCCC4)cc3Cl)ccc2N=C(N)C1", "target entity": "hTLR8 (Homo sapiens)", "IC50": "< 1000 nM"}
{"structure smiles": "CCOC(=O)C1=Cc2cc(-c3ccc(C(=O)OCC)cc3)ccc2N=C(N)C1", "target entity": "hTLR8 (Homo sapiens)", "IC50": "1000 to 10000 nM"}
{"structure smiles": "CCOC(=O)C1=Cc2cc(-c3ccc(N4CCCC4=O)cc3)ccc2N=C(N)C1", "target entity": "hTLR8 (Homo sapiens)", "IC50": "< 1000 nM"}
